These data points were gathered from patent US20020177168A1.

# ASSAYED_SYSTEM: OBPb (Bos taurus)
# Sequence (P07435 1-159): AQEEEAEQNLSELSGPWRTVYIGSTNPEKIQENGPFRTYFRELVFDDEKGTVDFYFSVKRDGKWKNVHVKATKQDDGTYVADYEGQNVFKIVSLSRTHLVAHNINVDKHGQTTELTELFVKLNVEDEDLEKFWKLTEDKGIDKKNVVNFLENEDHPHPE
pKd: −log10 of the molar value.
ASSAY_READOUT: pKd

Record excerpt, results attached:
# value lookup — system OBPb (Bos taurus), readout pKd, item CC(C)CCCC(C)CCO (stereo not drawn) [DMO]
~6.52

# value lookup — system OBPb (Bos taurus), readout pKd, item Nc1cccc2cc3ccccc3cc12 [AMA, Aminoanthracene]
~5.89

Attention now shifts to the item below.
# value lookup — system OBPb (Bos taurus), readout pKd, item CC(C)=CCC/C(C)=C/CO [geraniol]
~5.52
